These data points were gathered from patent US9796711B2.

Would you mind telling me the reported % Activation of each entry?
# Test Target: ΔF508-CFTR (Homo sapiens, UniProt P13569, DEL508-508)
# Construct: host or cells: CFBE41o-, doxycycline-inducible
# Sequence (P13569 with tags, fused parts or gaps DEL508-508): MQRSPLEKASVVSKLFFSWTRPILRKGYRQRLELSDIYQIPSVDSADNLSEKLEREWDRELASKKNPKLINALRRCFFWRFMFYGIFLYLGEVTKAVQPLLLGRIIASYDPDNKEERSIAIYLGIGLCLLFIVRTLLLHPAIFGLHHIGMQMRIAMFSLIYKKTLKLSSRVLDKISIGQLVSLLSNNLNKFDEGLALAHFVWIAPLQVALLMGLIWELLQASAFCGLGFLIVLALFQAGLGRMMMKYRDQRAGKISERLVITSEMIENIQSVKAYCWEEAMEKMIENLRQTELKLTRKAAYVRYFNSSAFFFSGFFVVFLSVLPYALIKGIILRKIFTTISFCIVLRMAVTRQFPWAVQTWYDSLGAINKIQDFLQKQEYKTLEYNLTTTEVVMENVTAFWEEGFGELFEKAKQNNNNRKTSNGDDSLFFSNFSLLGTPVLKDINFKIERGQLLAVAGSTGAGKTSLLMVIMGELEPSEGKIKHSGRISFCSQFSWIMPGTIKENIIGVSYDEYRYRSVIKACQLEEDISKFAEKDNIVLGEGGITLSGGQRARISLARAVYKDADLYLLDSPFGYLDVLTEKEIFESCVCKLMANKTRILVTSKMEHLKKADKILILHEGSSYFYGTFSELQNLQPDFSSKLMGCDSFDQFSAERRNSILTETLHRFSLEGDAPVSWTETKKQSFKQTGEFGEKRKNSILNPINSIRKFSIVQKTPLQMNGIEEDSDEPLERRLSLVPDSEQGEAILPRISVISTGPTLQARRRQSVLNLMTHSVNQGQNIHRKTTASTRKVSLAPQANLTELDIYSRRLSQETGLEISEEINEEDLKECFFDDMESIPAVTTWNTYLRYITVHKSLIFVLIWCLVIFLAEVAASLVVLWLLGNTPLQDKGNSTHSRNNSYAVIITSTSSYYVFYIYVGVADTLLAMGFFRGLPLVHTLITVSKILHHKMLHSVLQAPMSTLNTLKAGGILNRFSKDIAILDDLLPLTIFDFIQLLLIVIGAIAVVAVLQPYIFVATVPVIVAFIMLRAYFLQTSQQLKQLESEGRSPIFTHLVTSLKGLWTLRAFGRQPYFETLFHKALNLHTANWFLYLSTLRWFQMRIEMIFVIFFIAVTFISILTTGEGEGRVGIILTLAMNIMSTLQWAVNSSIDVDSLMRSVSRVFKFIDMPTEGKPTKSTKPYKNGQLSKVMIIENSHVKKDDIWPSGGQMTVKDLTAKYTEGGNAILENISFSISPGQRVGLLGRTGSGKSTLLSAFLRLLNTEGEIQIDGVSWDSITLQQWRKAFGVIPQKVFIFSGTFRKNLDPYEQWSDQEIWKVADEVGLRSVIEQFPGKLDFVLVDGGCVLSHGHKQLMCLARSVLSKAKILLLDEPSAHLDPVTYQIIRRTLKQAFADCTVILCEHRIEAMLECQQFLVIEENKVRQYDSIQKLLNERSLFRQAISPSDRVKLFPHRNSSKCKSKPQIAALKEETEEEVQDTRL
# Procedure Summary: CFTR cell surface levels using HRP-tagged ΔF508-CFTR expressing CFBE cells, intrinsic corrector capacity
# Assay type: cell-based
# Particulars: HRP-tagged ΔF508-CFTR expressing CFBE cells; intrinsic corrector capacity (no co-corrector); 33° C., 20 hours
Answer with a number only, understood to be in %.

Asked: Quickly give me recorded % Activation for N#CC1CCN(c2ccc(-c3cc(C(=O)O)nc4c3c(C3CC(F)(F)C3)nn4-c3ccccc3)cn2)CC1
Given back: 211.15

Asked: Quickly give me recorded % Activation for O=C(O)c1cc(N2CCC(N3CCCC(C(F)(F)F)C3)CC2)c2c(C3CCC3)nn(-c3ccc(F)cc3)c2n1 (centres unmarked)
Given back: 330.7

Asked: Quickly give me recorded % Activation for CC(=O)N1CCC(F)(COc2cc(C(=O)O)nc3c2c(C2CCC2)nn3-c2ccccc2)CC1
Given back: 114.41

Asked: Quickly give me recorded % Activation for CC(C)N1CCC2(CCN(c3cc(C(=O)O)nc4c3c(C3CCC3)nn4-c3ccc(F)cc3)CC2)CC1
Given back: 179

Asked: Quickly give me recorded % Activation for CC(C)COC1CCN(c2cc(C(=O)O)nc3c2c(C(C)C)nn3-c2ccc(F)cc2)CC1
Given back: 209.3

Asked: Quickly give me recorded % Activation for O=C(O)c1cc(N2CCC(CN3CC4CC4C3)CC2)c2c(C3CCC3)nn(-c3ccccc3)c2n1 (centres unmarked)
Given back: 184.9

Asked: Quickly give me recorded % Activation for CC(C)c1nn(C2CCCCC2)c2nc(C(=O)O)cc(OCC3CCOCC3)c12
Given back: 92.66

Asked: Quickly give me recorded % Activation for CC(C)c1nn(-c2ccc(F)cc2)c2nc(C(=O)O)cc(N3CCN(CCOCCO)CC3)c12
Given back: 9.442

Asked: Quickly give me recorded % Activation for CC(C)Oc1cc(-n2nc(C3CCC3)c3c(N4CCC(N5CCOCC5)CC4)cc(C(=O)O)nc32)ccn1
Given back: 304.2

Asked: Quickly give me recorded % Activation for O=C(O)c1cc(N2CCC(CN3CC4(CCCOC4)C3)CC2)c2c(C3CCC3)nn(-c3ccccc3)c2n1
Given back: 137.3

Asked: Quickly give me recorded % Activation for CN1CCCN(CCOc2cc(C(=O)O)nc3c2c(C2CCC2)nn3-c2ccccc2)CC1
Given back: 42.75

Asked: Quickly give me recorded % Activation for O=C(O)c1cc(N2CCC3(CC2)CC(F)(F)CO3)c2c(C3CCC3)nn(-c3ccccc3)c2n1
Given back: 110.68

Asked: Quickly give me recorded % Activation for O=C(O)c1cc(N2CC[C@@H](N3CCOCC3)C2)c2c(C3CCC3)nn(-c3ccccc3)c2n1
Given back: 108

Asked: Quickly give me recorded % Activation for CC(C)c1nn(-c2ccc(F)cc2)c2nc(C(=O)O)cc(N3CCCN(C)CC3)c12
Given back: 19.25

---

Would you mind telling me the reported % Activation of each entry?
# Test Target: ΔF508-CFTR (Homo sapiens, UniProt P13569, DEL508-508)
# Construct: host or cells: CFBE41o-, doxycycline-inducible
# Procedure Summary: CFTR cell surface levels using HRP-tagged ΔF508-CFTR expressing CFBE cells, intrinsic corrector capacity
# Assay type: cell-based
# Particulars: HRP-tagged ΔF508-CFTR CFBE41o- cells, compounds alone (intrinsic corrector capacity), 20 hours at 33° C.; positive control 3 μM corrector
Answer with a number only, understood to be in %.

Asked: Quickly give me recorded % Activation for Cc1nn(-c2ccccc2)c2nc(C(=O)O)cc(OC[C@H](F)C3CCN(C)CC3)c12
Given back: 14.735

Asked: Quickly give me recorded % Activation for COC(=O)N1CCC(n2nc(C(C)C)c3c(-c4ccc(N5CCOCC5)cc4)cc(C(=O)O)nc32)C1 (stereo not shown)
Given back: 17.605

Asked: Quickly give me recorded % Activation for COC1CCN(c2cc(C(=O)O)nc3c2c(C(C)C)nn3-c2cccc(C)c2)CC1
Given back: 276.92

Asked: Quickly give me recorded % Activation for CC(C)c1nn(-c2cccc(OC(F)(F)F)c2)c2nc(C(=O)O)cc(-c3ccc(N4CCOCC4)cc3)c12
Given back: 264.3

Asked: Quickly give me recorded % Activation for CC(C)c1nn(-c2cc(Cl)ccn2)c2nc(C(=O)O)cc(-c3ccc(N4CCOCC4)cc3)c12
Given back: 130.65

Asked: Quickly give me recorded % Activation for Cc1c(C(=O)O)nc2c(c(C(C)C)nn2-c2ccc(F)cc2)c1N1CCC(N2CCOCC2)CC1
Given back: 161.25

Asked: Quickly give me recorded % Activation for CC(C)c1nn(-c2cc(F)cc(F)c2)c2nc(C(=O)O)cc(-c3cnc(N(C)C4CCOCC4)nc3)c12
Given back: 216.25
